- assay: Plasma levels of MPA after intravenous continuous infusion in stable renal transplant patients
- Type: in vivo, human
- run_parameters: human, iv, 12 ml of the solution of example 2, 12 ml of solution of example 2, i.v. infusion over 30 min, sampling for 36 h, 12 stable renal transplant patients, read-out: Mean MPA AUC0-t
value_type: AUC(0-t) (ng·h/mL)
Give the number; ng·h/mL is assumed, so skip it.

Asked: Look up AUC(0-t) of COc1c(C)c2c(c(O)c1C/C=C(\C)CCC(=O)O)C(=O)OC2 [MPA, Mycophenolic acid] and report it.
Given back: 42100

###

- assay: Plasma levels of MPA after intravenous continuous infusion in stable renal transplant patients
- Assay type: in vivo, human
- run_parameters: human, iv, 12 ml of the solution of example 2, 12 ml of solution of example 2, i.v. infusion over 30 min, 12 stable renal transplant patients, read-out: Mean t1/2 (converted)
value_type: half-life

Asked: Please report half-life for the following compound: COc1c(C)c2c(c(O)c1C/C=C(\C)CCC(=O)O)C(=O)OC2
Given back: 9.68 h

Cited source: patent US20060189683A1
